Tested on: Escherichia coli
Assay: Antibacterial activity against Escherichia coli K-12 assessed as reduction in microbial viability incubated at 10 mM followed by irradiation at 120 J.cm2 light
Format: functional, organism-based
The source made the active and inactive calls. The rule behind the calls is not given here.
API: response.call in y = active, n = inactive

Worked examples follow.
> print(dat)
                                   compound        testtarget  assignedcategory
1                      CCCCCOC(=O)CCC(=O)CN  Escherichia coli                 n
2  COC(=O)CCC(=O)CN [METHYL AMINOLEVULINATE]  Escherichia coli                 y
3                     CCCCCCOC(=O)CCC(=O)CN  Escherichia coli                 n

Can you look up the reported call for CCCCCCCCOC(=O)CCC(=O)CN for me?
n

Similarly, CCCCOC(=O)CCC(=O)CN ?
y
